EXPERIMENTAL_SYSTEM: T1, PUF4 RNA-binding domain (Saccharomyces cerevisiae, UniProt P25339 537-888)
T1 sequence: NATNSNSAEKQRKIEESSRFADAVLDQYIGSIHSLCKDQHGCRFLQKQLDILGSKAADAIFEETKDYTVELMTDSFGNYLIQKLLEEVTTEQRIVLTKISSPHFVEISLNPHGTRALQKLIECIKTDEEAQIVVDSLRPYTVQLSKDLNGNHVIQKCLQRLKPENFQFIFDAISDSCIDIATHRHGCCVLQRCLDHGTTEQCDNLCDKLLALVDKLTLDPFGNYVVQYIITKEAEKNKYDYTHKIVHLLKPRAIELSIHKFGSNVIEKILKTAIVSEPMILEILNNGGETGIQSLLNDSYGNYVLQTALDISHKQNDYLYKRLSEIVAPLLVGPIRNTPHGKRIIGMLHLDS
ASSAY_INFO: Mg; RNA-MaP; 20 mM Na-HEPES pH 7.4, 30 mM KOAc, 0.75 mM MgCl2, 0.1% Tween-20, 5% glycerol, 0.1 mg/mL BSA, 2 mM DTT; 25 C; 0.0125-409.6 nM protein
EXPERIMENTAL_PARAMETERS: tags: N-His6-TEV cleaved; C-SNAP kept, Cy3B-labelled; label: tethered on chip by stalled RNA polymerase
Param label: returns yes (1) when Kd < 10 nM, returns no (0) otherwise, including exact equality.

Is the reported Kd for Ic_S4_P4E.1_K4.1_C4.1_H4.1_A4.1_[T5A]_[A6C]_[T7G]_F4.1_T4.1 (ssRNA) RNA: UUUGACAACUGAUCGUUCUUUCUUGUAACGUAUUCUUUCUCGAUCAGUUGUCUUU strictly below 10 nM? no (0)

Now let's try a different one.
Is the reported Kd for UCUCUUUCUAUAUAUACAUCUCUU (ssRNA) [Id_ii_S1_P3E.3_K3.2_C3.2_[C-2T]_[T-1C]_H3.2_A3.1_F3.1_T3.2_[T9C]] strictly below 10 nM? no (0)
